Give measured AC50 for each item. Keep answers brief.

Form: item CC1(C)CC(=O)C2=C(C1)N(Cc1cccnc1)C(=O)C2(NC(=O)c1cccnc1)C(F)(F)F (configuration not stated) ; test system Cytochrome P450 1A2 (Homo sapiens, UniProt P05177); AC50: 28.2 µM (inconclusive)

Form: item COc1ccccc1NCc1nnc(SCC(=O)N/N=C/c2ccco2)n1-c1ccc(Cl)cc1Cl ; test system Cytochrome P450 1A2 (Homo sapiens, UniProt P05177); AC50: 28.2 µM (inconclusive)

Form: item O=C1c2ccccc2C(=O)C1c1ccccc1 ; test system Cytochrome P450 1A2 (Homo sapiens, UniProt P05177); AC50: 15.8 µM (inconclusive)

Form: item CN1CC[C@H](CN2c3ccccc3Sc3ccccc32)C1 ; test system Cytochrome P450 1A2 (Homo sapiens, UniProt P05177); AC50: 5.01 µM (inconclusive)

Form: item Cc1cccc(NC(NC(=O)c2cccnc2)C(Cl)(Cl)Cl)c1 (configuration not stated) ; test system Cytochrome P450 1A2 (Homo sapiens, UniProt P05177); AC50: 22.4 µM (inconclusive)

Form: item Nc1ncnc2c1c(-c1ccc(Oc3ccccc3)cc1)cn2C1CCCC1 ; test system Cytochrome P450 1A2 (Homo sapiens, UniProt P05177); AC50: 15.8 µM (inconclusive)

Form: item C[C@H]1C[C@@H]2[C@H]3CCC4=CC(=O)C=C[C@@]4(C)[C@@]3(Cl)[C@@H](O)C[C@]2(C)[C@]1(OC(=O)c1ccco1)C(=O)CCl ; test system Cytochrome P450 1A2 (Homo sapiens, UniProt P05177); AC50: 5.01 µM (inconclusive)

Form: item O=C(Nc1cccc(F)c1)N1CC[C@@]2(CCCN(C(=O)c3cccc(F)c3)C2)C1 ; test system Cytochrome P450 1A2 (Homo sapiens, UniProt P05177); AC50: 12.6 µM (inconclusive)

Form: item O=C(c1sc2ccccc2c1Cl)N1CCN(c2ccc(F)cc2)CC1 ; test system Cytochrome P450 1A2 (Homo sapiens, UniProt P05177); AC50: 2.82 µM (inconclusive)

Form: item CC(C)=C[C@H]1[C@@H](C(=O)OCc2cc3c(cc2Cl)OCO3)C1(C)C ; test system Cytochrome P450 1A2 (Homo sapiens, UniProt P05177); AC50: 0.794 µM (inconclusive)

Form: item COc1cccc(Cn2c(=O)c(CCc3ccccc3)nc3cnc(N4CCNCC4)nc32)c1 ; test system Cytochrome P450 1A2 (Homo sapiens, UniProt P05177); AC50: 12.6 µM (inconclusive)

Form: item [O-][S+](Cc1ccc(Br)cc1)Cc1nnc(SCc2ccc(Cl)cc2)n1-c1ccccc1 (configuration not stated) ; test system Cytochrome P450 1A2 (Homo sapiens, UniProt P05177); AC50: 25.1 µM (inconclusive)

Form: item COC(=O)C(NC(=O)c1ccccc1)=C1C=C(C)OC(C)=C1 ; test system Cytochrome P450 1A2 (Homo sapiens, UniProt P05177); AC50: 14.1 µM (inconclusive)

Form: item CN1CCN(S(=O)(=O)c2cc([N+](=O)[O-])ccc2N2CCCCCC2)CC1 ; test system Cytochrome P450 1A2 (Homo sapiens, UniProt P05177); AC50: 25.1 µM (inconclusive)

Form: item C=CCN1C(=O)CN=C1Nc1ccccc1 ; test system Cytochrome P450 1A2 (Homo sapiens, UniProt P05177); AC50: 28.2 µM (inconclusive)

Form: item Sc1nnc(C2CCCCC2)n1/N=C/c1cccs1 ; test system Cytochrome P450 1A2 (Homo sapiens, UniProt P05177); AC50: 2 µM (inconclusive)

Form: item O=C(CN(Cc1ccco1)C(=O)c1cccc(Cl)c1)Nc1c(Cl)cc(Cl)cc1Cl ; test system Cytochrome P450 1A2 (Homo sapiens, UniProt P05177); AC50: 12.6 µM (inconclusive)

Form: item CC1(C(=O)CSc2nc3ccccc3s2)CCC(=O)O1 (configuration not stated) ; test system Cytochrome P450 1A2 (Homo sapiens, UniProt P05177); AC50: 3.55 µM (inconclusive)

Form: item O=C(Oc1ccccc1)N1CCC2(CCN(Cc3ccncc3)CC2)CC1 ; test system Cytochrome P450 1A2 (Homo sapiens, UniProt P05177); AC50: 25.1 µM (inconclusive)

Form: item Cc1ccccc1OC/C(O)=C(\C#N)c1nc2ccccc2[nH]1 ; test system Cytochrome P450 1A2 (Homo sapiens, UniProt P05177); AC50: 0.282 µM (inconclusive)

Form: item CCNc1ncc2nc(-c3cccs3)c(=O)n(Cc3ccc(F)cc3)c2n1 ; test system Cytochrome P450 1A2 (Homo sapiens, UniProt P05177); AC50: 10 µM (inconclusive)

Form: item CN(C)C(=O)c1ccc(-c2nc(-n3ccnc3)c3ccccc3n2)cc1 ; test system Cytochrome P450 1A2 (Homo sapiens, UniProt P05177); AC50: 20 µM (inconclusive)
